Would you mind telling me the reported relative viability of each entry?
# System: SW982
# assay.explanation: relative viability vs DMSO control (72 h) (fraction); higher = more viable cells
# protocol.conditions: 0.3704 µM
When you answer, write just the number.

Query relative viability on SW982 for CCC(=O)N1CC[C@H](Nc2ncnc3c2CN(c2cnc(OC)c(C(F)(F)F)c2)CC3)C1
1.02

Query relative viability on SW982 for N#CCNC(=O)c1ccc(-c2ccnc(Nc3ccc(N4CCOCC4)cc3)n2)cc1
0.841

Query relative viability on SW982 for COc1cc(CCc2cc(NC(=O)c3ccc(N4CC(C)NC(C)C4)cc3)n[nH]2)cc(OC)c1 (stereo not drawn)
0.995

Query relative viability on SW982 for CC1(C)CC=C(c2nc(C3CC(C)(C)OC(C)(C)C3)ccc2NC(=O)c2nc(C#N)c[nH]2)CC1
1.07

Query relative viability on SW982 for CN1CCN(c2ccc(C(=O)Nc3n[nH]c4ccc(Cc5cc(F)cc(F)c5)cc34)c(NC3CCOCC3)c2)CC1
0.991

Query relative viability on SW982 for CNC(=O)c1ccccc1Sc1ccc2c(/C=C/c3ccccn3)n[nH]c2c1
0.96

Query relative viability on SW982 for COc1cc(Nc2ncc(F)c(Nc3ccc4c(n3)N(COP(=O)(O)O)C(=O)C(C)(C)O4)n2)cc(OC)c1OC
0.66

Query relative viability on SW982 for CC#CC(=O)N1CCC[C@H]1c1nc(-c2ccc(C(=O)Nc3ccccn3)cc2)c2c(N)nccn12
1.02

Source of measurements: the supplement of paper PMC10883282
